experiment: drug combination growth inhibition, ovarian cancer – cell-based, oncology-focused library, rucaparib conditional, profiling panel (AID 1508598); details: patient-derived ovarian cancer cells, CellTiter-Glo viability, 144 h; at 5 µM; OCI-P5x cells; without rucaparib; hits give low values
Kindly state viability for each of the entries shown.
Give bare numbers, in %.

Examples with their reported viability follow.
>  <molecule>
CN(C)Cc1c(C(=O)NCCOc2ccc(C(=O)NO)cc2)oc2ccccc12

>  <viability (%)>
34

$$$$
>  <molecule>
C/C(=C\C(=O)Nc1ccccc1C(=O)O)c1ccc2ccccc2c1

>  <viability (%)>
117

$$$$
>  <molecule>
C[C@@H]1CN(CC(=O)Nc2ccc3c(c2)Cc2cccc(-c4cc(=O)cc(N5CCOCC5)o4)c2S3)C[C@H](C)O1

>  <viability (%)>
81.8

$$$$
>  <molecule>
CCC(CC)CC1(C(=O)Nc2ccccc2SC(=O)C(C)C)CCCCC1

>  <viability (%)>
108

$$$$

Below are some molecules; for each one, tell me its viability.
1. N#CCNC(=O)c1ccc(-c2ccnc(Nc3ccc(N4CCOCC4)cc3)n2)cc1
2. Nc1cccc2c1C(=O)N(C1CCC(=O)NC1=O)C2=O (stereo not given)
3. COCCn1c2c([n+](Cc3cnccn3)c1C)C(=O)c1ccccc1C2=O
4. CCc1cc(Nc2nccc(-c3c(-c4ccc(OC)c(C(=O)Nc5c(F)cccc5F)c4)nc4ccccn34)n2)c(OC)cc1N1CCC(N2CCN(S(C)(=O)=O)CC2)CC1
5. NC(=O)c1ccc(I)c([N+](=O)[O-])c1
6. CC(=O)c1c(C)c2cnc(Nc3ccc(N4CCNCC4)cn3)nc2n(C2CCCC2)c1=O
7. Cc1nc(N)sc1-c1ccnc(Nc2ccc(N3CCOCC3)cc2)n1

49
97.3
0.371
90.5
91.7
97.9
102
